# TARGET UNDER TEST: kappa opioid receptor (OPRK1) (Homo sapiens (Human), UniProt P41145)
# Sequence (P41145 whole entry): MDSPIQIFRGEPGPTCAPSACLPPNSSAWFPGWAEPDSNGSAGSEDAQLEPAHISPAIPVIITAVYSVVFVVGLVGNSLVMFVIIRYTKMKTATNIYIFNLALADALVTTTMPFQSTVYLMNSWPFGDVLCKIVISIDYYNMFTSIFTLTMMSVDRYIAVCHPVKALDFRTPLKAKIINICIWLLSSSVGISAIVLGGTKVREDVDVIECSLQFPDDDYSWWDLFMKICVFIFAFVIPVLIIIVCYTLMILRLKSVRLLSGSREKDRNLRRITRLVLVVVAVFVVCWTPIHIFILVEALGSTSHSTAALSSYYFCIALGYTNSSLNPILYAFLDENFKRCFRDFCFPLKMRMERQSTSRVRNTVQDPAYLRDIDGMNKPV
# ASSAY METHOD TEXT: OPRK1 antagonist assay (b-arrestin-2-TEV / b-lactamase reporter cell line, EC80 U-50488 challenge)
# Assay type: cell-based
# CONDITION CONTEXT: read-out: IC50 nM (% inhib if other than 50%); antagonist mode vs EC80 U-50488; NA = not active at concentrations up to 10 μM
METRIC NAME: IC50 (nM)

Value of IC50 reported for the compound Cc1ccc2nc(N3CCC(NC4CCC(F)(F)CC4)CC3)c(-c3noc(C)n3)cc2c1 is 26

Value of IC50 reported for the compound Cc1ccc2nc(N3CCC(NC4CCOCC4)CC3)c(-c3noc(C)n3)cc2c1 is 19

I. CCOC(=O)c1cc(Br)cnc1N1CC[C@H](NC2CCCCC2)[C@@H](O)C1
II. CCc1noc(-c2cc(Br)cnc2N2CCC(NC3CCCCC3)CC2)n1
## Input Between I and II , which one shows the smaller IC50 number? Respond with the label that goes with your answer.
## Output I
(I: 16 nM, II: 11000 nM)

* * *

# TARGET UNDER TEST: UniProt:P41145
# ASSAY METHOD TEXT: OPRK1 antagonist assay (b-arrestin-2-TEV / b-lactamase reporter cell line, EC80 U-50488 challenge)
# Assay type: cell-based
# CONDITION CONTEXT: read-out: IC50 nM (% inhib if other than 50%); antagonist mode vs EC80 U-50488; NA = not active at concentrations up to 10 μM
METRIC NAME: IC50 (nM)

Value of IC50 reported for the compound COC1CN(c2nc(C)c(C)cc2-c2nc(C)no2)CCC1NC1CCCCCC1 (stereo not drawn) is 21

1. CC(=O)c1cc2cc(C)ccc2nc1N1CCC(NC2CCCCC2)CC1
2. Cc1ccc2nc(N3CCC(NC4CC5CCC4C5)CC3)c(-c3nc(C)no3)cc2c1 (stereo not drawn)
## Input Hi, I'm comparing 1 with 2 and wondering which one has the bigger number for IC50. Any idea? Respond with the label that goes with your answer.
## Output 1
(1: 211 nM, 2: 49 nM)

* * *

# TARGET UNDER TEST: kappa opioid receptor (OPRK1) (Homo sapiens (Human), UniProt P41145)
# ASSAY METHOD TEXT: OPRK1 antagonist assay (b-arrestin-2-TEV / b-lactamase reporter cell line, EC80 U-50488 challenge)
# Assay type: cell-based
# CONDITION CONTEXT: read-out: IC50 nM (% inhib if other than 50%); antagonist mode vs EC80 U-50488; NA = not active at concentrations up to 10 μM
METRIC NAME: IC50 (nM)

Worked set:
Entry Cc1noc(-c2cc3ccc(F)c(C)c3nc2N2CCC(NC3CCOCC3)CC2)n1 [compound 493] : IC50 on kappa opioid receptor (OPRK1) (Homo sapiens (Human), UniProt P41145) = 132

Entry COC1CN(c2nc3c(C)cccc3cc2-c2nc(C)no2)CCC1NC1CCCCC1 (stereo not drawn) [compound 276] : IC50 on kappa opioid receptor (OPRK1) (Homo sapiens (Human), UniProt P41145) = 18

Entry Cc1noc(-c2cc3c(F)cccc3nc2N2CCC(NC3CCCCC3)C(CO)C2)n1 (stereo not drawn) [compound 253] : IC50 on kappa opioid receptor (OPRK1) (Homo sapiens (Human), UniProt P41145) = 10

Entry COC(=O)c1cc2ccccc2nc1N1CC[C@@H](NC2CCCCC2)[C@H](O)C1 [compound 160] : IC50 on kappa opioid receptor (OPRK1) (Homo sapiens (Human), UniProt P41145) = 209

Entry CNC(=O)c1cc(Br)cnc1N1CCC(NC2CCCCC2)CC1 [compound 87] : IC50 on kappa opioid receptor (OPRK1) (Homo sapiens (Human), UniProt P41145) = 19000

Entry O[C@@H]1CN(c2ncc(Br)cc2-c2nc(C3CC3)no2)CC[C@H]1NC1CCCCC1 [compound 150] : IC50 on kappa opioid receptor (OPRK1) (Homo sapiens (Human), UniProt P41145) = 9100

Entry COC1CN(c2nc3ccccc3cc2-c2nc(C)no2)CCC1NC1CCCCCC1 (stereo not drawn) [compound 311] : IC50 on kappa opioid receptor (OPRK1) (Homo sapiens (Human), UniProt P41145) = 1

Entry COC(=O)c1cc(Br)cnc1N1CCC(NC2CCCC2)C(C(=O)OC)C1 (stereo not drawn) [compound 114] : IC50 on kappa opioid receptor (OPRK1) (Homo sapiens (Human), UniProt P41145) = 1200

Entry Cc1noc(-c2nc3ccccc3nc2N2CCC(NC3CCCC3)C(CO)C2)n1 (stereo not drawn) [compound 202] : IC50 on kappa opioid receptor (OPRK1) (Homo sapiens (Human), UniProt P41145) = 187

Entry COC1CN(c2ncc(C)cc2-c2nccc(C)n2)CCC1NC1CCCCC1 (stereo not drawn) [compound 384] : IC50 on kappa opioid receptor (OPRK1) (Homo sapiens (Human), UniProt P41145) = 16700

I. OCC1CN(c2nc3ccccc3cc2-c2ncco2)CCC1NC1CCCCC1 (stereo not drawn) [compound 226]
II. Cc1nc(-c2cc3ccc(F)c(C)c3nc2N2CCC(NC3CCCCC3)CC2)no1 [compound 503]
## Input Between I and II , which one shows the smaller IC50 number? Respond with the label that goes with your answer.
## Output II

A. Cc1nc(-c2cc3ccc(F)c(C)c3nc2N2CCC(NC3CCOCC3)CC2)no1 [compound 511]
B. COC1CN(c2ncc(C)cc2-c2ncco2)CCC1NC1CCCCC1 (stereo not drawn) [C70]
C. Cc1ccc2nc(N3CCC(N4CCCCC4)CC3)c(-c3nc(C)no3)cc2c1 [compound 266]
## Input Please give the order of these compounds when sorted by IC50, largest value leading. Kindly provide the labels arranged according to the requested ordering.
## Output B, C, A

1. COC1CN(c2nc3ccc(C)cc3cc2-c2nc(C3CC3)no2)CCC1NCC(C)C (stereo not drawn) [compound 376]
2. COC1CN(c2nc3c(cc2-c2nc(C)no2)CCCC3)CCC1NC1CCCCC1 (stereo not drawn) [compound 193]
3. Cc1noc(-c2cc(C)c(C)nc2N2CCC(NC3CCCCC3)CC2)n1 [compound 221]
## Input // ascending sort on recorded IC50 Kindly provide the labels arranged according to the requested ordering.
## Output 1, 3, 2
(1: 14 nM, 3: 24 nM, 2: 729 nM)

* * *

# TARGET UNDER TEST: kappa opioid receptor (OPRK1) (Homo sapiens (Human))
# ASSAY METHOD TEXT: OPRK1 antagonist assay (b-arrestin-2-TEV / b-lactamase reporter cell line, EC80 U-50488 challenge)
# Format: cell-based
# CONDITION CONTEXT: read-out: IC50 nM (% inhib if other than 50%); antagonist mode vs EC80 U-50488; NA = not active at concentrations up to 10 μM
METRIC NAME: IC50 (nM)

Value of IC50 reported for the molecule COC(=O)c1cc(Br)cnc1N1CCC(NC2CCOCC2)C(O)C1 (centres unmarked) [compound 61] is 54

Value of IC50 reported for the molecule CC(C)OC(=O)c1cc(Br)cnc1N1CC[C@@H](NC2CCCCC2)[C@H](O)C1 [compound 135] is 1630

Value of IC50 reported for the molecule Cc1ccc2nc(N3CCC(NCC(C)O)CC3)c(-c3nc(C)no3)cc2c1 (centres unmarked) [compound 360] is 8

1. COC1CN(c2nc3cc(C)c(C)cc3cc2-c2nc(C)no2)CCC1NC1CCCCC1 (centres unmarked) [compound 306]
2. Cc1nc(-c2cc3ccc(F)cc3nc2N2CCC(NC3CCCC3)CC2)no1 [compound 481]
3. Cc1noc(-c2cc3cc(F)ccc3nc2N2CCC(NC3CCCCC3)C(CO)C2)n1 (centres unmarked) [compound 243]
4. Cc1ccc2nc(N3CCC(NC4CCCCCCC4)CC3)c(-c3nc(C)no3)cc2c1 [compound 260]
5. Cc1ccc2nc(N3CCC(NC4CCCOC4)CC3)c(-c3nc(C)no3)cc2c1 (centres unmarked) [compound 247]
## Input // ascending sort on recorded IC50 Kindly provide the labels arranged according to the requested ordering.
## Output 5, 2, 3, 1, 4
(5: 4 nM, 2: 10 nM, 3: 22 nM, 1: 107 nM, 4: 261 nM)

* * *

# TARGET UNDER TEST: kappa opioid receptor (OPRK1) (Homo sapiens (Human), UniProt P41145)
# ASSAY METHOD TEXT: OPRK1 antagonist assay (b-arrestin-2-TEV / b-lactamase reporter cell line, EC80 U-50488 challenge)
# Assay type: cell-based
# CONDITION CONTEXT: read-out: IC50 nM (% inhib if other than 50%); antagonist mode vs EC80 U-50488; NA = not active at concentrations up to 10 μM
METRIC NAME: IC50 (nM)

Worked set:
Value of IC50 reported for the compound Cc1nc(-c2cc3cc(F)ccc3nc2N2CCC(NC3CCCCC3)CC2)no1 is 431

Value of IC50 reported for the compound COC1CN(c2ncc(C)cc2-c2nc(C)no2)CCC1NC1CCCCCC1 (stereo not drawn) is 19

A. COC(=O)c1cc(Br)cnc1N1CCC(NC2CCCCC2)C1 (stereo not drawn)
B. CO[C@H]1CN(c2nc3ccc(C)cc3cc2-c2nc(C)no2)CC[C@H]1NC1CCCCC1
## Input Hi, I'm comparing A with B and wondering which one has the bigger number for IC50. Any idea? Respond with the label that goes with your answer.
## Output A
(A: 185 nM, B: 0.7 nM)

1. CCc1noc(-c2cc3cc(C)ccc3nc2N2CCC(NC3CCCCC3)C(OC)C2)n1 (stereo not drawn)
2. Cc1ccc2nc(N3CCC(NC4COC4)CC3)c(-c3nc(C)no3)cc2c1
## Input Between 1 and 2 , which one shows the smaller IC50 number? Respond with the label that goes with your answer.
## Output 1

I. COC(=O)c1cc(Br)cnc1N1CCC(NC2CCCCC2)C(C)C1 (stereo not drawn)
II. COC(=O)c1cc(I)cnc1N1CCC(NC2CCCCC2)C(O)C1 (stereo not drawn) [compound 42]
## Input Between I and II , which one shows the smaller IC50 number? Respond with the label that goes with your answer.
## Output II
(II: 18 nM, I: 164 nM)

a. Cc1cnc(N2CC[C@@H](NC3CCCCC3)[C@H](O)C2)c(-c2ncco2)c1
b. COC1CN(c2nc3ccc(C)cc3cc2-c2nc(C)no2)CCC1NCC(C)C (stereo not drawn)
## Input Between a and b , which one shows the smaller IC50 number? Respond with the label that goes with your answer.
## Output b
(b: 12 nM, a: 2500 nM)

P. COC1CN(c2nc3c(cc2-c2nc(C)no2)CCC3)CCC1NC1CCCCC1 (stereo not drawn)
Q. COC(=O)c1cc(C2CC2)cnc1N1CCC(NC2CCCCC2)C(O)C1 (stereo not drawn)
R. COC(=O)c1cc(Br)cnc1N1CCC(NC2CCCCC2)C(F)C1 (stereo not drawn)
## Input Please give the order of these compounds when sorted by IC50, largest value leading. Kindly provide the labels arranged according to the requested ordering.
## Output Q, R, P
(Q: 17000 nM, R: 3400 nM, P: 72 nM)

A. Cc1nc(-c2cc3cc(F)ccc3nc2N2CCC(N[C@@H]3CCCC[C@H]3O)CC2)no1
B. CCOC(=O)c1cc2cc(C)ccc2nc1N1CCC(NC2CCCCC2)C(CO)C1 (stereo not drawn)
## Input Hi, I'm comparing A with B and wondering which one has the bigger number for IC50. Any idea? Respond with the label that goes with your answer.
## Output A

A. Cc1noc(-c2cc3cccc(C)c3nc2N2CCC(NC3CCOCC3)CC2)n1
B. CO[C@H]1CN(c2nc3ccc(C)cc3cc2-c2nc(C)no2)CC[C@H]1NC1CCC(F)(F)CC1
## Input Hi, I'm comparing A with B and wondering which one has the bigger number for IC50. Any idea? Respond with the label that goes with your answer.
## Output B
(B: 278 nM, A: 98 nM)
